Biological target: UniProt Q07817
Sequence (Q07817 whole entry): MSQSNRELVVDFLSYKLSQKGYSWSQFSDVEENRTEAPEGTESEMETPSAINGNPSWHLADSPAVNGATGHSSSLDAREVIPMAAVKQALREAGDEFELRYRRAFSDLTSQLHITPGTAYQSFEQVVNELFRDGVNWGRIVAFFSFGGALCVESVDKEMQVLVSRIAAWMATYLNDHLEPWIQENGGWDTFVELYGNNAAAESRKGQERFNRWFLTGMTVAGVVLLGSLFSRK
Assay: TR-FRET binding assay, GST-Bcl-XL with F-Bak peptide probe
Conditions: TR-FRET Binding Affinity, GST-Bcl-XL, F-Bak peptide probe
measured_quantity: pKi
To interpret pKi, take it as minus log10 of a concentration measured in moles per litre.

Observe how each entry below is paired with its result.
compound	target_of_assay	measured_quantity	result_value
CN(C)CCCNc1ccc(S(=O)(=O)NC(=O)c2ccc(N3CCN(CC4=C(c5ccc(Cl)cc5)CC(C)(C)CC4)CC3)cc2Oc2ccc3[nH]ccc3c2)cc1[N+](=O)[O-] [Example 53]	UniProt Q07817	pKi	8.31
CC1(C)CCC(CN2CCN(c3ccc(C(=O)NS(=O)(=O)c4ccc(NCCCN5CCOCC5)c([N+](=O)[O-])c4)c(Oc4ccc5c(c4)CCCN5)c3)CC2)=C(c2ccc(Cl)cc2)C1 [Example 22]	UniProt Q07817	pKi	6.90
CN(C)CCNc1ccc(S(=O)(=O)NC(=O)c2ccc(N3CCN(Cc4ccccc4-c4ccc(Cl)cc4)CC3)cc2Oc2ccccc2)cc1[N+](=O)[O-] [Example 153]	UniProt Q07817	pKi	7.03
CC1(C)CCC(CN2CCN(c3ccc(C(=O)NS(=O)(=O)c4ccc(NCCCN5CCNC(=O)C5)c([N+](=O)[O-])c4)c(Oc4cccc5[nH]ccc45)c3)CC2)=C(c2ccc(Cl)cc2)C1 [Example 223]	UniProt Q07817	pKi	7.01

Then there is this compound:
Prompt line: API: value(readout= pKi, system= UniProt Q07817, query= CN(C)CCCNc1ccc(S(=O)(=O)NC(=O)c2ccc(N3CCN(Cc4ccccc4-c4ccc(Cl)cc4)CC3)cc2Oc2cccc3[nH]ccc23)cc1[N+](=O)[O-] [Example 46] )
Response line: 7.72
